Just for reference, the CheMixHub drug solubility set is where these values come from.

# solubility (g/100 g solution) listing for each entry below
- MEASUREMENT_NOTES: xn = mol fraction of the nth substance listed, in the solute-free solvent
- DETAILS: 278.15 K; x2 = 0.8
OUTCOME_MEASURE: solubility (g/100 g solution)

O=C(CC(=O)c1ccccc1)c1ccccc1 + CCO + O
1.25
O=c1ccc2ccccc2o1 + CC(C)=O + O
30.6
CC1(C)SC2C(NC(=O)C(NC(=O)N3CCNC3=O)c3ccccc3)C(=O)N2C1C(=O)O (configuration not stated) + CO + CC(C)O
0.251
O=C(CC(=O)c1ccccc1)c1ccccc1 + CC(C)O + O
0.977
O=C(CC(=O)c1ccccc1)c1ccccc1 + CO + O
0.491
CC1(C)SC2C(NC(=O)C(NC(=O)N3CCNC3=O)c3ccccc3)C(=O)N2C1C(=O)O (configuration not stated) + CCO + CC(C)O
0.37
O=c1ccc2ccccc2o1 + CO + O
3.28

###

- MEASUREMENT_NOTES: xn = mol fraction of the nth substance listed, in the solute-free solvent
- DETAILS: 298.15 K; x2 = 0.4
// label = Y if solubility (g/100 g solution) is not less than 1, otherwise N

CN1CCN(C(=O)OC2c3nccnc3C(=O)N2c2ccc(Cl)cn2)CC1 (stereo not given) + CC#N + O
Y
CCCCN1CCCCC1C(=O)Nc1c(C)cccc1C.Cl.O (stereo not given) + CO + O
Y
CN1CCN(C(=O)OC2c3nccnc3C(=O)N2c2ccc(Cl)cn2)CC1 (stereo not given) + CC(C)=O + O
N
O=C(CC(=O)c1ccccc1)c1ccccc1 + CCO + O
Y
CCCCN1CCCCC1C(=O)Nc1c(C)cccc1C.Cl.O (stereo not given) + CCO + O
Y
O=C(CC(=O)c1ccccc1)c1ccccc1 + CC(C)O + O
N
CN1CCN(C(=O)OC2c3nccnc3C(=O)N2c2ccc(Cl)cn2)CC1 (stereo not given) + CCO + O
N
CN1CCN(C(=O)OC2c3nccnc3C(=O)N2c2ccc(Cl)cn2)CC1 (stereo not given) + C1CCOC1 + O
Y
O=c1ccc2ccccc2o1 + CO + O
Y
O=C(CC(=O)c1ccccc1)c1ccccc1 + CO + O
N

###

- MEASUREMENT_NOTES: xn = mol fraction of the nth substance listed, in the solute-free solvent
- DETAILS: 303.15 K; x2 = 0.5454
OUTCOME_MEASURE: solubility (g/100 g solution)

COC(=O)C1=C(C)NC(C)=C(C(=O)OCC(C)C)C1c1ccccc1[N+](=O)[O-] (stereo not given) + CCCO + O
6.23
O=[N+]([O-])c1cc[nH]n1 + CCCO + O
4.35
CC(=O)Nc1ccc(OC(=O)c2ccccc2OC(C)=O)cc1 + CC(C)O + O
0.295
CS(=O)(=O)c1ccc(C(O)C(CF)NC(=O)C(Cl)Cl)cc1 (stereo not given) + CC(C)O + O
1.16
COC(=O)C1=C(C)NC(C)=C(C(=O)OCC(C)C)C1c1ccccc1[N+](=O)[O-] (stereo not given) + CC(C)O + O
7.21

###

- MEASUREMENT_NOTES: xn = mol fraction of the nth substance listed, in the solute-free solvent
- DETAILS: 318.15 K; x2 = 0.9
// label = true if solubility (g/100 g solution) is not less than 4, otherwise false

CC1(C)SC2C(NC(=O)C(NC(=O)N3CCNC3=O)c3ccccc3)C(=O)N2C1C(=O)O (stereo unspecified) + CCO + CC(C)O
false
CN1CCN(C(=O)OC2c3nccnc3C(=O)N2c2ccc(Cl)cn2)CC1 (stereo unspecified) + CC(C)=O + O
false
CN1CCN(C(=O)OC2c3nccnc3C(=O)N2c2ccc(Cl)cn2)CC1 (stereo unspecified) + CCO + O
false
CCCCN1CCCCC1C(=O)Nc1c(C)cccc1C.Cl.O (stereo unspecified) + CCO + O
true
O=c1ccc2ccccc2o1 + CO + O
true
CCOC(=O)C1=CC2(CC)CCCN3CCc4c(n1c1ccccc41)C32 (stereo unspecified) + CCO + O
false
